Target: Muscarinic acetylcholine receptor M3 (Homo sapiens) (UniProt P20309)
Sequence (P20309 whole entry, looked up): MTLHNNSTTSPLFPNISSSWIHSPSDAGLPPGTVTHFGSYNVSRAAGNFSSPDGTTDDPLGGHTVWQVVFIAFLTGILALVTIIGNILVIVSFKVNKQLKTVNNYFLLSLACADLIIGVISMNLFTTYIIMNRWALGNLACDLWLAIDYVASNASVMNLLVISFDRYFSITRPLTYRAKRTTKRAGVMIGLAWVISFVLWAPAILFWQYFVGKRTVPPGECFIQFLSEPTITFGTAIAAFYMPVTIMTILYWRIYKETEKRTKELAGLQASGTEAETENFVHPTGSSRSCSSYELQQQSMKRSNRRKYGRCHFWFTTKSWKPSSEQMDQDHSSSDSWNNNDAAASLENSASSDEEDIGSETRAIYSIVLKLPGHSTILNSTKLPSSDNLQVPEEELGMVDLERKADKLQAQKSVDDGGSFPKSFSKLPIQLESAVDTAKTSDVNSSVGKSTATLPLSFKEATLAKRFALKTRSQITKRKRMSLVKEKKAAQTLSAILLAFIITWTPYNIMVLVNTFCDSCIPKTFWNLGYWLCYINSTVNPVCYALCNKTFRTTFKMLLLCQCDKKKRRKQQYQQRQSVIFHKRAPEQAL
Test: Percent increase in [3H]myo-inositol at muscarinic acetylcholine receptor M3 from SK-N-SH human neuroblastoma cells
Assay type: cell-based
Set-up: concentration or dose not given beside the values
RECORDED METRIC: Activity

CN(CC#CCN1CCCC1)C(=O)CCCNC(=O)CCNC(=O)OC(C)(C)C < 1%
CN(CC#CCN1CCCC1)C(=O)CCCCCNC(=O)CN < 1%
CN(CC#CCN1CCCC1)C(=O)CCCCCNC(=O)CCN 7%
CC(=O)NCCCCCCCC(=O)N(C)CC#CCN1CCCC1 < 1%
CN(CC#CCN1CCCC1)C(=O)CCCCCNC(=O)OC(C)(C)C < 1%

**Q:** Which Activity is reported for this compound? "CN(CC#CCN1CCCC1)C(=O)CCN.O=C(O)C(F)(F)F.O=C(O)C(F)(F)F"
**A:** < 1%

###

Biological target: Muscarinic acetylcholine receptor M4 (Rattus norvegicus) (UniProt P08485)
Test: Percent inhibition against muscarinic acetylcholine receptor M4 from NG108-15 cell line
Assay type: cell-based
Parameters: concentration or dose not given beside the values
Hi there, I'd appreciate the recorded Activity for every entry that follows.

Would you please look over these solved cases?
CN(CC#CCN1CCCC1)C(=O)CCCNC(=O)c1ccccc1 < 1%
CN(CC#CCN1CCCC1)C(=O)CCCNC(=O)CN < 1%
CN(CC#CCN1CCCC1)C(=O)CCCCCCNC(=O)OC(C)(C)C.O=C(O)C(=O)O < 1%
CC(=O)NCC(=O)N(C)CC#CCN1CCCC1 14.1%
CC(=O)NCCCCC(=O)N(C)CC#CCN1CCCC1 5.2%

**Q:** Which value of Activity has been reported for "CN(CC#CCN1CCCC1)C(=O)CCC(=O)O" in the records?
**A:** < 1%

###

Biological target: Muscarinic acetylcholine receptor M4 (Rattus norvegicus) (UniProt P08485)
Sequence (whole entry): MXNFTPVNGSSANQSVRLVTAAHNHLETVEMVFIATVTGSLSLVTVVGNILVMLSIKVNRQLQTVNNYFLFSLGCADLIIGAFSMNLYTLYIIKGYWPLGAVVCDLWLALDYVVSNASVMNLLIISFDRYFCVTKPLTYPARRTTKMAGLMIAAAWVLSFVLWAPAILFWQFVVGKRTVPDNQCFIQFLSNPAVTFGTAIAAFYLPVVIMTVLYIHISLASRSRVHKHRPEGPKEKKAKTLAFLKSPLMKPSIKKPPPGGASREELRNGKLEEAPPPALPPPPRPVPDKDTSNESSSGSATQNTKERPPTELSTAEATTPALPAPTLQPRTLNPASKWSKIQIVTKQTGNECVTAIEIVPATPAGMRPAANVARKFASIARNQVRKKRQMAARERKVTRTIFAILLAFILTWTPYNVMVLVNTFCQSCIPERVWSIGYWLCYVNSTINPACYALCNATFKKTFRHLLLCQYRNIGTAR
Test: Binding affinity at muscarinic acetylcholine receptor M4 from NG108-15 cell line in presence of [3H]-NMS
Format: cell-based
Affinity class ranges: I: < 20%; II: ≥ 20% and < 50%; III: ≥ 50%

CC(=O)NCC(=O)N(C)CC#CCN1CCCC1 II
CN(CC#CCN1CCCC1)C(=O)CCCCCCNC(=O)OC(C)(C)C.O=C(O)C(=O)O III
CN(CC#CCN1CCCC1)C(=O)CCCCCCCN.O=C(O)C(F)(F)F.O=C(O)C(F)(F)F III

**Q:** Sort into band: "CN(CC#CCN1CCCC1)C(=O)CCCCNC(=O)OC(C)(C)C"
**A:** II

**Q:** Category of "CN(CC#CCN1CCCC1)C(=O)CCCCCNC(=O)c1ccccc1" , please.
**A:** III

**Q:** Into which category would you place "CN(CC#CCN1CCCC1)C(=O)c1ccccc1" ?
**A:** II

**Q:** Lab note: which band did "CN(CC#CCN1CCCC1)C(=O)c1cccc(Cl)c1" land in?
**A:** II

**Q:** Could you place "CC(=O)NCCC(=O)N(C)CC#CCN1CCCC1.O=C(O)C(=O)O" in its proper category? Many thanks.
**A:** III

**Q:** Which bin, given its Affinity, does "CN(CC#CCN1CCCC1)C(=O)CCCCN.O=C(O)C(F)(F)F.O=C(O)C(F)(F)F" occupy?
**A:** II

**Q:** Hello team, could you let me know which band the following compound falls into: "C[N+](C)(C)CC#CCN1CCCC1=O"
**A:** III

**Q:** Which class does "CN(CC#CCN1CCCC1)C(=O)CCCNC(=O)c1ccccc1" fall in?
**A:** II

**Q:** Hey, which category is "CN(CC#CCN1CCCC1)C(=O)CCCCCNC(=O)CCN" in, do you know?
**A:** III

**Q:** Category lookup for the compound "COC(=O)CCC(=O)N(C)CC#CCN1CCCC1"
**A:** I

**Q:** Class (by measured Affinity) for "CN(CC#CCN1CCCC1)C(=O)CN"
**A:** II

###

Molecular target: Muscarinic acetylcholine receptor M3 (Homo sapiens) (UniProt P20309)
Assay: Percent increase in [3H]myo-inositol at muscarinic acetylcholine receptor M3 from SK-N-SH human neuroblastoma cells
Format: cell-based
Parameters: concentration or dose not given beside the values
Consider the following compounds; for each one, report its Activity.

Reference set (6 entries):
COMPOUND	TEST VALUE
CN(CC#CCN1CCCC1)C(=O)CN	< 1%
CC(=O)N(C)C(C)C#CCN1CCCC1 (stereo not given)	< 1%
CN(CC#CCN1CCCC1)C(=O)CCCCCCN.O=C(O)C(F)(F)F.O=C(O)C(F)(F)F	< 1%
COC(=O)CCC(=O)N(C)CC#CCN1CCCC1	< 1%
CN(CC#CCN1CCCC1)C(=O)CCCNC(=O)OC(C)(C)C	< 1%
CN(CC#CCN1CCCC1)C(=O)CCCCCNC(=O)c1ccccc1	< 1%

Required: Activity, one value per compound below.
1. CN(CC#CCN1CCCC1)C(=O)CCCCCCCNC(=O)OC(C)(C)C.O=C(O)C(=O)O
2. CN(CC#CCN1CCCC1)C(=O)CCCNC(=O)CNC(=O)OC(C)(C)C

**A:**
1: < 1%; 2: < 1%

Batch lookup, Activity per entry.
1. CN(CC#CCN1CCCC1)C(=O)CNC(=O)OC(C)(C)C
2. CN(CC#CCN1CCCC1)C(=O)CCCN
3. CN(CC#CCN1CCCC1)C(=O)CCC(=O)NCCN
4. CN(CC#CCN1CCCC1)C(=O)CCCCN.O=C(O)C(F)(F)F.O=C(O)C(F)(F)F
5. CN(CC#CCN1CCCC1)C(=O)CCNC(=O)OC(C)(C)C
6. CN(CC#CCN1CCCC1)C(=O)CCCCCCNC(=O)OC(C)(C)C.O=C(O)C(=O)O

**A:**
< 1%
< 1%
< 1%
< 1%
< 1%
< 1%

**Q:** Reported Activity, compound "CN(CC#CCN1CCCC1)C(=O)CCCNC(=O)c1ccccc1" : ____
**A:** < 1%

###

Target: UniProtKB P08485
Assay: Percent inhibition against muscarinic acetylcholine receptor M4 from NG108-15 cell line
Type: cell-based
Design: concentration or dose not given beside the values
Kindly state Activity for each of the entries shown.

Would you mind giving Activity for every molecule in the list below?
1. CN(CC#CCN1CCCC1)C(=O)CCCCCNC(=O)CNC(=O)OC(C)(C)C
2. COC(=O)CCC(=O)N(C)CC#CCN1CCCC1
3. CN(CC#CCN1CCCC1)C(=O)CCCCCNC(=O)CCN

**A:**
["< 1%", "< 1%", "< 1%"]

###

Molecular target: Muscarinic acetylcholine receptor M4 (Rattus norvegicus) (UniProt P08485)
Assay: Binding affinity at muscarinic acetylcholine receptor M4 from NG108-15 cell line in presence of [3H]-NMS
Format: cell-based
Exercise: for every item that follows, state its recorded Affinity.
Give bare numbers, in %.

Look over these answered cases.
CC(=O)NCCCCCCCC(=O)N(C)CC#CCN1CCCC1 50.4
CN(CC#CCN1CCCC1)C(=O)CCC(=O)NCCN 14
CC(=O)NCCCCCC(=O)N(C)CC#CCN1CCCC1 22.7

Please go through the list and note Affinity for each compound.
1. CN(CC#CCN1CCCC1)C(=O)CCCNC(=O)CCNC(=O)OC(C)(C)C
2. CC(=O)NCCCCC(=O)N(C)CC#CCN1CCCC1
3. CC(=O)NCCCCCCC(=O)N(C)CC#CCN1CCCC1
4. CN(CC#CCN1CCCC1)C(=O)CCCNC(=O)CCN
5. CC(=O)NCCCC(=O)N(C)CC#CCN1CCCC1

**A:**
1. 38.8
2. 17.9
3. 20.4
4. 29
5. 19.1

###

Answer each item with its documented Affinity.
Target: Muscarinic acetylcholine receptor M4 (Rattus norvegicus)
Assay: Binding affinity at muscarinic acetylcholine receptor M4 from NG108-15 cell line in presence of [3H]-NMS
Type: cell-based
Answers are plain numbers, in %.

Example entries begin here.
CN(CC#CCN1CCCC1)C(=O)CCCNC(=O)CNC(=O)OC(C)(C)C 24.4
CN(CC#CCN1CCCC1)C(=O)CCCCCNC(=O)CN 57
CN(CC#CCN1CCCC1)C(=O)CCCN 12.1
CN(CC#CCN1CCCC1)C(=O)CCCCCCCNC(=O)OC(C)(C)C.O=C(O)C(=O)O 89

From here, focus on the item given below.
**Q:** Any idea what its Affinity is? The compound is "CN(CC#CCN1CCCC1)C(=O)CCN.O=C(O)C(F)(F)F.O=C(O)C(F)(F)F"
**A:** 15.1

Source listed as ChEMBL document CHEMBL1124832.
